Experimental Endpoint: melting point

Examples with answers:
> print(dat)
                                   compound         meas.value
1  C[C@]1(COc2ccc(C3=CCN(Cc4ccc(OC(F)(F)F)cc4)CC3)cc2)Cn2cc([N+](=O)[O-])nc2O1      168 to 174 °C
2  C[C@]1(CN2CCC(N3CCN(Cc4ccc(Cl)cc4)CC3)CC2)Cn2cc([N+](=O)[O-])nc2O1      148 to 149 °C
3  Cn1c(=O)n(CC2(C)Cn3cc([N+](=O)[O-])nc3O2)c2ccccc21 (centres unmarked)  203.2 to 204.4 °C
4  CC1(CN2CCN(Cc3ccc(F)cc3)C2=O)Cn2cc([N+](=O)[O-])nc2O1 (centres unmarked)  182.5 to 183.3 °C
5  C[C@]1(CN2CCC(N3CCN(c4ccc(Cl)cc4)CC3)CC2)Cn2cc([N+](=O)[O-])nc2O1      226 to 228 °C

query: Reported melting point for O=C(Nc1ccc(N2CCOCC2)c(F)c1)N1CCC2(CC1)Cn1cc([N+](=O)[O-])nc1O2 : what is it?
result: 240 to 245 °C (dec.)

query: Note, next up: CC1(CN2CCN(C(=O)COc3ccc(Cl)c(Cl)c3)CC2)Cn2cc([N+](=O)[O-])nc2O1 (centres unmarked)
result: 209 to 211 °C

query: C[C@]1(CN2CCN(C(=O)OCc3ccc(OC(F)(F)F)cc3)CC2)Cn2cc([N+](=O)[O-])nc2O1 ?
result: 139.5 to 140.5 °C

====

Each item that follows carries a reported melting point.

# count of solved cases: 4
> print(dat)
                                   molecule            meas.value
1  CCN(CC)C(=O)OC[C@@]1(C)Cn2cc([N+](=O)[O-])nc2O1         196 to 197 °C
2  CC(C)(C)OC(=O)N1CCN(C(=O)N2CCC3(CC2)Cn2cc([N+](=O)[O-])nc2O3)CC1  260 to 265 °C (dec.)
3  C[C@]1(CN2CCN(N=C3CCCCC3)CC2)Cn2cc([N+](=O)[O-])nc2O1     178.6 to 179.3 °C
4  C[C@]1(CN2CCC(OCC=Cc3ccccc3)CC2)Cn2cc([N+](=O)[O-])nc2O1       91.3 to 92.7 °C

# context switch: different molecule, same melting point
query: Name the recorded melting point for CC1(CCc2nnnn2-c2ccc(Cl)cc2)Cn2cc([N+](=O)[O-])nc2O1 (centres unmarked) .
result: 198 to 200 °C

====

Experimental Endpoint: melting point

// known answers, use as guide
> print(dat)
                                   compound         meas.value
1  CC(C)(C)OC(=O)CNC(=O)OCC1(C)Cn2cc([N+](=O)[O-])nc2O1 (centres unmarked)      104 to 106 °C
2  CC1(CN2CCN(c3ccc(Cl)cc3)CC2)Cn2cc([N+](=O)[O-])nc2O1 (centres unmarked)  196.6 to 197.3 °C
3  C[C@]1(CN2CCC(N3CCN(C(=O)OCc4ccc(OC(F)(F)F)cc4)CC3)CC2)Cn2cc([N+](=O)[O-])nc2O1      110 to 111 °C
4  CC1(CN2CCN(C(=O)NCc3ccc(C(F)(F)F)cc3)CC2)Cn2cc([N+](=O)[O-])nc2O1 (centres unmarked)    201 to 202.5 °C
5  C[C@]1(CN2CCN(C3CCN(C(=O)c4ccc(Cl)cc4)CC3)CC2)Cn2cc([N+](=O)[O-])nc2O1      218 to 220 °C

query: Item under review: CC1(CN2CCN(CCCn3c(=O)oc4ccccc43)CC2)Cn2cc([N+](=O)[O-])nc2O1 (centres unmarked) . Reported melting point?
result: 123 to 126 °C

query: Can you handle C[C@]1(COc2ccc(C(=O)N3CCN(C(=O)OCc4ccc(OC(F)(F)F)cc4)CC3)cc2)Cn2cc([N+](=O)[O-])nc2O1 next?
result: 168.5 to 172 °C

query: Please answer likewise for C[C@]1(CN2CCC(OCc3ccc(Cl)c(Cl)c3)CC2)Cn2cc([N+](=O)[O-])nc2O1
result: 132 to 136 °C

====

Experimental Endpoint: melting point

> print(dat)
                                   compound  experimental.endpoint            meas.value
1  O=C(Cc1ccc(C(F)(F)F)cc1)N1CCC2(CC1)Cn1cc([N+](=O)[O-])nc1O2          melting point         185 to 187 °C
2  C[C@]1(CN2CCC(OCCc3ccc(Cl)cc3)CC2)Cn2cc([N+](=O)[O-])nc2O1          melting point         92.5 to 94 °C
3  CN(C)c1ccc(NC(=O)N2CCC3(CC2)Cn2cc([N+](=O)[O-])nc2O3)cc1          melting point  244 to 247 °C (dec.)
4  C[C@]1(COc2ccc(N3CCN(C(=O)OCc4cc5cc(Cl)ccc5o4)CC3)cc2)Cn2cc([N+](=O)[O-])nc2O1          melting point         195 to 197 °C
5  CC1(CCCN2CCN(Cc3ccc(-c4ccccc4)cc3)CC2)Cn2cc([N+](=O)[O-])nc2O1 (centres unmarked)          melting point         176 to 178 °C
6  C[C@]1(CN2CCN(C(=O)OCC=Cc3ccc(C(F)(F)F)cc3)CC2)Cn2cc([N+](=O)[O-])nc2O1          melting point         132 to 133 °C

query: # get_value(readout='melting point', item= CC(C)(C)OC(=O)N1CCN(CCC2(C)Cn3cc([N+](=O)[O-])nc3O2)CC1 (centres unmarked) )
result: 190 to 191 °C (dec.)

query: What do you have for CC1(CCN2CCN(C(=O)OCc3ccc(C(F)(F)F)cc3)CC2)Cn2cc([N+](=O)[O-])nc2O1 (centres unmarked) ?
result: 139 to 140 °C

====

Experimental Endpoint: melting point

Recorded results for 3 compounds are shown here.
> print(dat)
                                   compound  experimental.endpoint       meas.value
1  C[C@]1(CN2CCC(OCCCc3ccc(Cl)cc3)CC2)Cn2cc([N+](=O)[O-])nc2O1          melting point  88.8 to 91.9 °C
2  C[C@]1(CN2CCN(C(=O)N3C=CC(c4ccc(Cl)cc4)=CC3)CC2)Cn2cc([N+](=O)[O-])nc2O1          melting point    156 to 159 °C
3  CC1(CCCN2CCN(Cc3ccc(C(F)(F)F)cc3)CC2)Cn2cc([N+](=O)[O-])nc2O1 (stereo not shown)          melting point    154 to 156 °C

query: Query: melting point; subject: O=C(CN1CCN(CC(=O)N2CCC3(CC2)Cn2cc([N+](=O)[O-])nc2O3)CC1)Nc1ccc(C(F)(F)F)cc1
result: 133 to 135 °C

====

Recorded melting point values for a group of compounds are listed next.

Illustrative cases are given below, each with its answer.
> print(dat)
                                   compound         meas.value
1  C[C@]1(COc2ccc(N3CC[S+]([O-])CC3)cc2)Cn2cc([N+](=O)[O-])nc2O1      198 to 200 °C
2  C[C@]1(CN2CCN(c3nc(-c4ccccc4)cc(-c4ccccc4)n3)CC2)Cn2cc([N+](=O)[O-])nc2O1  201.2 to 205.4 °C
3  CC1(CN2CCC(=O)CC2)Cn2cc([N+](=O)[O-])nc2O1 (stereo not drawn)      124 to 126 °C
4  CC1(CN2CCN(S(=O)(=O)c3ccc(Cl)cc3)CC2)Cn2cc([N+](=O)[O-])nc2O1 (stereo not drawn)      202 to 204 °C
5  O=C(Oc1ccccc1)N1CCC2(CC1)Cn1cc([N+](=O)[O-])nc1O2      242 to 244 °C
6  C[C@]1(COc2ccc(-n3ccnc3)cc2)Cn2cc([N+](=O)[O-])nc2O1      172 to 175 °C

query: Returns the measured melting point for the input compound. Input: CC1(CN2CCC(C(=O)c3ccc(C(F)(F)F)cc3)CC2)Cn2cc([N+](=O)[O-])nc2O1 (stereo not drawn)
result: 172 to 174 °C

query: Do the same for C[C@]1(CN2CCN(Cc3ccc(-c4ccccc4)cc3)CC2)Cn2cc([N+](=O)[O-])nc2O1 please
result: 182 to 184 °C

query: Request: CCCCCCn1c(=O)n(CC2(C)Cn3cc([N+](=O)[O-])nc3O2)c2cc(Cl)ccc21 (stereo not drawn)
result: 168.1 to 169.3 °C
